Experiment: Healthy Japanese subjects, Part 2 (100, 200, 300 mg BID up-titration): PK of TAK-935 and M-I
Type: in vivo, human
Conditions: human, plasma, oral, 200 mg, Day 14 (200 mg BID), Part 2, Median; read-out: AUCtau
Reported Endpoint: AUC (ng·h/mL)
Form entry: value (ng·h/mL) — number only.

[in] Give its AUC value. Item: O=C(c1cccnc1-c1ccncc1)N1CCC(O)(Cc2ccccc2)CC1 [soticlestat]
[out] 794

* * *

Test: clinical
Format: in vivo
Details: both sexes, human, in vivo, po, 50 mg
Reported Endpoint: AUC(0-inf)
Hey, just the number and the unit after it is fine.

[in] Give its AUC(0-inf) value. Item: "O=C(c1cccnc1-c1ccncc1)N1CCC(O)(Cc2ccccc2)CC1"
[out] 172 ng·h/mL
